Recorded values, source PubChem BioAssay.

experiment: antimalarial activity against Dd2 strain (AID 2302); settings: P. falciparum Dd2 in RBCs, LDH growth readout, 72 h; at 2 µM
The source made the active and inactive calls.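 How the source made its calls: active means growth inhibition above 50% at the single 2 µM test dose, taken to imply half-maximal potency below 2 µM; inactive means the rest.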
Possible outcomes: active, inactive

molecule	group label
Cc1ccccc1CNCC(O)c1cccc(C(F)(F)F)c1 (stereo unspecified)	active
CN(c1ccnc(Nc2ccc(CS(C)(=O)=O)cc2)n1)C1CCN(Cc2ccccc2)CC1	inactive
O=C(Nc1cc(C(F)(F)F)cc(C(F)(F)F)c1)N1CCC(CN2CCC(c3c[nH]c4ccccc34)CC2)CC1	active
CC[C@H]1CN2CC[C@H]1C[C@@H]2[C@@H](OC(=O)c1ccc(Cl)cc1)c1ccnc2ccc(OC)cc12	inactive
CC[C@H]1CN2CC[C@H]1C[C@H]2[C@H](O)c1cc(-c2ccc(SC)cc2)nc2ccc(OC)cc12	active
CC[C@H]1CN2CC[C@H]1C[C@H]2[C@H](O)c1cc(-c2cccc(F)c2)nc2ccc(OC)cc12	active
O=C(C=Cc1cc([N+](=O)[O-])ccc1Cl)NC1CCC(CN2CCC(c3c[nH]c4ccccc34)CC2)CC1 (stereo unspecified)	active
CC(C)CNCc1ccc(-c2cccc(CN(C(=O)CCC3CCCC3)C3CCN(Cc4ccccc4)CC3)c2)cc1	active
CN(C)c1cccc(NC(=O)N[C@H]2N=C(c3ccccc3)c3ccccc3N(CC(=O)N3CCCC3)C2=O)c1	active
c1ccc2c(NCCCCCCNc3c4c(nc5ccccc35)CCCC4)c3c(nc2c1)CCCC3	active
CCCCCCCSc1ccc(CC(C)NCC(O)c2cccc(Cl)c2)cc1 (stereo unspecified)	active
CC(C)CNCc1ccc(-c2cccc(CN(C(=O)Nc3ccccc3)C3CCN(Cc4ccccc4)CC3)c2)cc1	active
CC[C@H]1CN2CC[C@@H]1C[C@H]2[C@H](O)c1cc(N2CCC(O)CC2)nc2ccc(OC)cc12	active
O=C(/C=C/c1ccc(Cl)cc1Cl)NC1CCC(CN2CCC(c3c[nH]c4ccccc34)CC2)CC1 (stereo unspecified)	active
COC(=O)c1ccc(CC(C)NCC(O)c2cccc(C(F)(F)F)c2)c(OC)c1 (stereo unspecified)	active
O=C(/C=C/c1ccc(Cl)c(Cl)c1)NCc1ccc(CN2CCC(c3c[nH]c4ccccc34)CC2)cc1	active
O=C(CNC1CCCCC1)c1ccc(O)c(O)c1	active
CC[C@H]1CN2CC[C@H]1C[C@H]2[C@H](O)c1cc(-c2cccc(C)c2)nc2ccc(OC)cc12	active
CCC(C)(C)N[C@@H](C)[C@@H](O)c1ccc(C(F)(F)F)cc1	active
COC(=O)/C=C/C(=O)N[C@@H]1CC[C@@]2(O)[C@H]3Cc4ccc(O)c5c4[C@@]2(CCN3CC2CC2)[C@H]1O5	active
CCCCCCC(C)c1cc(O)c2c(c1)OC(C)(C)c1ccncc1-2 (stereo unspecified)	active
CC(C)CNCc1cccc(-c2cccc(CN(C(=O)c3cccs3)C3CCN(Cc4ccccc4)CC3)c2)c1	inactive
CC(Cc1ccc(CSC(C)C)cc1)NCC(O)c1cccc(Cl)c1 (stereo unspecified)	active
O=C(/C=C/c1ccc(Cl)c(Cl)c1)NC1CCC(N2CCC(c3c[nH]c4ccc(O)cc34)CC2)CC1 (stereo unspecified)	inactive
O=C(/C=C/c1cc(C(F)(F)F)ccc1F)N1CCC(CN2CCC(c3c[nH]c4ccccc34)CC2)CC1	inactive
CC[C@H]1CN2CC[C@@H]1C[C@H]2[C@H](O)c1cc(-c2cc(Cl)cc(Cl)c2)nc2ccc(OC)cc12	active
Cc1[nH]c2ccc([N+](=O)[O-])cc2c1C1=CCN(C)CC1	active
CC(Cc1ccc(-c2nc3ccccc3[nH]2)cc1)NCC(O)c1cccc(C(F)(F)F)c1 (stereo unspecified)	active
COC(C(=O)OCCC1CCCN1C)(c1ccccc1)C1CCCCC1 (stereo unspecified)	inactive
COC(=O)c1ccc(CC(C)NCC(O)c2ccc(F)c(Cl)c2)cc1 (stereo unspecified)	active
Cc1c(C)c2c(c(C)c1O)CC[C@](C)(C(=O)N1CCC(CN3CCC(c4c[nH]c5ccccc45)CC3)CC1)O2	active
O=C(/C=C/c1ccc(Cl)c(Cl)c1)NCCC1CCC(N2CCC(c3c[nH]c4ccccc34)CC2)CC1 (stereo unspecified)	active
CC[C@H]1CN2CC[C@@H]1C[C@H]2[C@H](O)c1cc(N2CCC(CO)CC2)nc2ccc(OC)cc12	active
CC[C@H]1CN2CC[C@H]1C[C@H]2[C@H](O)c1cc(-c2ccc(F)cc2)nc2ccc(OC)cc12	active
O=C(O)c1ccc2nc(-c3ccc(-c4ccccc4)cc3)n(C3CCN(Cc4ccc(-c5ncc[nH]5)cc4)CC3)c2c1	active
CN(C)c1cccc(NC(=O)NC2N=C(c3ccccc3)c3ccccc3N(CC(=O)N(C)c3ccccc3)C2=O)c1 (stereo unspecified)	active
